Consider the following compounds; for each one, report its GI50.
- System: MDA-MB-435
- Test Name: NCI tumour cell line growth inhibition, 48 h
Activity calls are given as the source filed them. No stated cut-off is given here; in the data, active = GI50 up to about 1.1 µM and inactive = higher.

Look over these answered cases.
QUERY: GET /values?readout=GI50&item= CN(C)CCCn1c(-c2cc(C(C)(C)C)c(O)c(C(C)(C)C)c2)cs/c1=N\c1ccccc1
RESULT: 2.34 µM (inactive)

QUERY: I would be grateful if you could share the reported GI50 for Cc1nc(Nc2ccc(Cl)c(Cl)c2)sc1C(/C=C/c1ccc2c(c1)OCO2)=N/Nc1ccc([N+](=O)[O-])cc1[N+](=O)[O-] .
RESULT: > 100 µM (inactive)

QUERY: GI50 lookup needed for COC(=O)c1cc2c(cc1C(=O)OC)[C@@]1(C)CCCC(C)(C)C1CC2 (stereo not given in full) , thanks.
RESULT: 30.2 µM (inactive)

QUERY: I have this compound here, CCSc1nn(-c2c3ccccc3nc3ccccc23)c(=S)s1 , and I need its recorded GI50.
RESULT: > 100 µM (inactive)

Now turn to the next compound.
QUERY: Please report the recorded GI50 for Cc1ncc([N+](=O)[O-])n1CCNC(=O)CCCn1ccnc1[N+](=O)[O-] .
RESULT: > 100 µM (inactive)
